Molecular target: human SPR (Homo sapiens (Human))
Sequence (P35270 whole entry): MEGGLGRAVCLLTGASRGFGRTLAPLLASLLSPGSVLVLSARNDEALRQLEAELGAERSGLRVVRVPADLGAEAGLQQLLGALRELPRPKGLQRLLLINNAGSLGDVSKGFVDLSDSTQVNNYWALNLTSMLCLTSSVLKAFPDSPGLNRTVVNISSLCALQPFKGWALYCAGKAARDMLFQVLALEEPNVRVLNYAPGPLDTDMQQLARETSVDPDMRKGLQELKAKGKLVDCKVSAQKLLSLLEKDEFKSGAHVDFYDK
Experiment: Evaluation Example 2: Measurement of human SPR inhibitory activity (seven concentrations, sepiapterin absorbance at 420 nm)
Type: biochemical
Conditions: Evaluation Example 2, seven concentrations 0.14 nM to 100 nM, 240 minutes at room temperature, hydrochloride, read-out: IC50
Where a name gives a salt, the structure may show the parent alone.
Recorded Endpoint: pIC50
Value format note: pIC50 is -log10 of concentration (mol/L); just state the number.

pIC50 of CC(C)(C)Cn1c(=O)c(C(=O)NC2CC2)c(O)n2nc(N)cc12 [Synthesis Example 4, hydrochloride] on human SPR (Homo sapiens (Human))?
9.05

* * *

# IC50 per record follows
Target: human SPR (Homo sapiens (Human))
Assay: Evaluation Example 2: Measurement of human SPR inhibitory activity (seven concentrations, sepiapterin absorbance at 420 nm)
Format: biochemical
Settings: Evaluation Example 2, seven concentrations 0.14 nM to 100 nM, 240 minutes at room temperature, read-out: IC50
Where a name gives a salt, the structure may show the parent alone.
Just the number please, in nM, no unit attached.

[[record]]
molecule = "CCc1nn2c(O)c(C(=O)NC3CC3)c(=O)n(CC(C)C)c2c1/C=C/C(=O)N1CCOCC1"
recorded_endpoint = "IC50"
number = 0.99


IC50 of `CC(C)(C)Cn1c(=O)c(C(=O)NC2CC2)c(O)n2nc(-c3cccnc3N)c(Br)c12` on human SPR (Homo sapiens (Human))?
8.22

IC50 of `Cc1nn2c(O)c(C(=O)NC3CC3)c(=O)n(CC(C)C)c2c1/C=C/C(=O)N1CC2CCC(C1)O2` on human SPR (Homo sapiens (Human))?
0.67

IC50 of C/C=C/c1c(N)nn2c(O)c(C(=O)NC3CC3)c(=O)n(CC(C)(C)C)c12 [Synthesis Example 438, hydrochloride] on human SPR (Homo sapiens (Human))?
0.98
